This collection of values is drawn from patent US20260191981A1.

Listing of entries alongside the reported Kd.
Target: T1, biotinylated cTfR1 (Acro Bio p/n TFR-C8249) (cynomolgus monkey, UniProt H9EXL1 89-760 (rhesus entry), biotinylated; site not stated)
T1 construct: Bought reagent of the BLI assay
T1 sequence (chain, as listed by the source): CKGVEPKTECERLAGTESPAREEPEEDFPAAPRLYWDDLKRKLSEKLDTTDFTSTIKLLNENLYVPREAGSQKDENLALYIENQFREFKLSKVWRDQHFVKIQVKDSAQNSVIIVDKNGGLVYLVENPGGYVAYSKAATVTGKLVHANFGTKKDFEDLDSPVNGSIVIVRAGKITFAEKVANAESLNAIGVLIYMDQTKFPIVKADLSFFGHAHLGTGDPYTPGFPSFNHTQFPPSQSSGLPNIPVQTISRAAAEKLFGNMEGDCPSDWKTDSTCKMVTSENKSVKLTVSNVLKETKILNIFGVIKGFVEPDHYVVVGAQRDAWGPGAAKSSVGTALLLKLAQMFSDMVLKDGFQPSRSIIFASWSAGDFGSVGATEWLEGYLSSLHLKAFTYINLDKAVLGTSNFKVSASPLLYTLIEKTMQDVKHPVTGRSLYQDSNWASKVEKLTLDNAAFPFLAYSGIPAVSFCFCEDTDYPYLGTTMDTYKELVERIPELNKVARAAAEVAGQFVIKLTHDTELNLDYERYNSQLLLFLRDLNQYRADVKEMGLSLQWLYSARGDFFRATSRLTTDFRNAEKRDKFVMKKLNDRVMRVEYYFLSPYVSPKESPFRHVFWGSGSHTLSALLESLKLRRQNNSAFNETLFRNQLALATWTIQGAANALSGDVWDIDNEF
Assay: BLI, Octet RH16, biotinylated TfR1 on streptavidin sensor; Fab-siRNA conjugate

Illustrative cases are given below, each with its answer.
Fab0069-siRNA conjugate (Fab, V domains shown, siRNA-linker on a reduced cysteine; chain and residue not stated, also called Fab0069 (BLI conjugate columns)) VH: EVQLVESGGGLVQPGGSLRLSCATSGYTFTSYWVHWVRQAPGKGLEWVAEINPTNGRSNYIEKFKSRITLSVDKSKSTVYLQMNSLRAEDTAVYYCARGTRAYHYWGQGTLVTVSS VL: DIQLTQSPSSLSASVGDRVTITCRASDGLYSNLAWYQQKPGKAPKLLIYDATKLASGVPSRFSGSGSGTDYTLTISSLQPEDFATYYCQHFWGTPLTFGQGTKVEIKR = 9.58 nM
Fab0065-siRNA conjugate (Fab, V domains shown, siRNA-linker on a reduced cysteine; chain and residue not stated, also called Fab0065 (BLI conjugate columns)) VH: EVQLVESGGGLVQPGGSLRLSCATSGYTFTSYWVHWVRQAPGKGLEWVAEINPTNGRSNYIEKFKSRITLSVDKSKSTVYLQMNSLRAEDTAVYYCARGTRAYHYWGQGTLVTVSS VL: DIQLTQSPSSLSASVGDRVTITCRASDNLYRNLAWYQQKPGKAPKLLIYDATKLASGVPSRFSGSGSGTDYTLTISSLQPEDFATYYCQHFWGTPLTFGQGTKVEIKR = 5.63 nM
Fab0068-siRNA conjugate (Fab, V domains shown, siRNA-linker on a reduced cysteine; chain and residue not stated, also called Fab0068 (BLI conjugate columns)) VH: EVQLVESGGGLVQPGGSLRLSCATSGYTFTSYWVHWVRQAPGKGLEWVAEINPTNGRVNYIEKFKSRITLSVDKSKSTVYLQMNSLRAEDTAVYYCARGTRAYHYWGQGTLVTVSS VL: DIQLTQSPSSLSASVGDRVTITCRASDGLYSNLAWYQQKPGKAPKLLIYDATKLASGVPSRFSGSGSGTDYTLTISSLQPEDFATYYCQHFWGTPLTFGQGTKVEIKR = 8.89 nM

# ---- query binder ----
## Input Need Kd, item Fab0066-siRNA conjugate (Fab, V domains shown, siRNA-linker on a reduced cysteine; chain and residue not stated, also called Fab0066 (BLI conjugate columns)) VH: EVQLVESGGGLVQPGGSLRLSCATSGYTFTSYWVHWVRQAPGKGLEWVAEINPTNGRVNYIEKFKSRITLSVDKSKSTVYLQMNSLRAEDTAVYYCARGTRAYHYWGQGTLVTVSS VL: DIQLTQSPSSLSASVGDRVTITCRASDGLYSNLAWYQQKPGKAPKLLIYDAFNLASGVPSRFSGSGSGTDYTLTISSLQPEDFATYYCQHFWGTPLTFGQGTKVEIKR
## Output 10 nM
